Every entry's value here was drawn from patent US20210355194A1.

Biological target: ACE2 (human, UniProt Q9BYF1 18-740)
Sequence (Q9BYF1 18-740 limits assumed): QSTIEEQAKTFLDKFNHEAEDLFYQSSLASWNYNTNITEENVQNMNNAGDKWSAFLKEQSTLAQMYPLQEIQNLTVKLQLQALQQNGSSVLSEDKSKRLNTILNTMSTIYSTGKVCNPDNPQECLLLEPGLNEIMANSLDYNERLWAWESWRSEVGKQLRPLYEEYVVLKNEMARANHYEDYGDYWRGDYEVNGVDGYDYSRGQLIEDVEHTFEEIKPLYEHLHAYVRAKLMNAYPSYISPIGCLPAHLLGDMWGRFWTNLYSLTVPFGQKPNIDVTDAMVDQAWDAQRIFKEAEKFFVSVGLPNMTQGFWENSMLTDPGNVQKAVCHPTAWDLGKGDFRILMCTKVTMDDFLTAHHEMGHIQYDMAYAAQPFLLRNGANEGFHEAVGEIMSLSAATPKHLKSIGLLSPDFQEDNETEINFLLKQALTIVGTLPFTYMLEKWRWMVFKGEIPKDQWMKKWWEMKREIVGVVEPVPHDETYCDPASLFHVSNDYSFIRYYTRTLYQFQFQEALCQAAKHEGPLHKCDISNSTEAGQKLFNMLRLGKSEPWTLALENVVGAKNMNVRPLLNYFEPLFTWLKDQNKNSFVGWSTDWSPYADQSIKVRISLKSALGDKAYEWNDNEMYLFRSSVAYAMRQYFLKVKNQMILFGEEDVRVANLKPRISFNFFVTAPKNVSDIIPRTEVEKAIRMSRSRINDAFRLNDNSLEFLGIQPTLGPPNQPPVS
Catalogue of binders with associated koff
Give the value, in units of s⁻¹, as a plain number.

1) ACE2 variant antibody 4-69 (VHH) VHH: EVQLVESGGGLVQPGGSLRLSCAASGRTFSDDAMGWFRQAPGKEREFVAAINWSGGTTRYADSVKGRFTISADNSKNTAYLQMNSLKPEDTAVYYCATDPPLFWGQGTLVTVSS : 0.00256

Incoming: Looking for the measured koff of ACE2 variant antibody 4-76 (VHH) VHH: EVQLVESGGGLVQPGGSLRLSCAASGRTFGDYAMGWFRQAPGKERELVAPINWSGGSTYYADSVKGRFTISADNSKNTAYLQMNSLKPEDTAVYYCATDPPLFWGQGTLVTVSS , can you help?
Outgoing: 0.00428
